Numbers sourced from PubChem BioAssay AID1347426.

experiment: Novel Modifiers of Survival Motor Neuron (SMN) Protein: Gene Identification via Genome-wide siRNA Screen; details: HEK293T SMN2-luciferase reporter, siRNA knockdown, 72 h; actives lie on both sides;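 further: luminescence tracks full-length SMN protein made from the SMN2 reporter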
Out of some 31,000 sequences screened, about 1,400 (4.5%) were called active.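 How the source made its calls: active means median seed-adjusted z-score above 1 or below -1; inactive means the rest.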 The sample as a whole holds a higher share of actives than the screen did.
Reply using exactly one outcome from 1 = active, 0 = inactive

Some solved entries appear below for comparison.
INSERT INTO assay_data (primary_sequence, answer_label) VALUES
  ('GGAAUGCACCCAGAUCAAATT against TFAP2D', 0),
  ('CGGAAGGUGUAUGAACUGATT against ICAM1', 0),
  ('CCAUCUAUUCAGAGACGUATT against MUTYH', 0),
  ('CCACACUGGUGAUAGACCATT against ZNF384', 0),
  ('CGGAGAAGAUGUUCGCCGATT against SIL1', 0),
  ('UGAAAAACAUUAACAAGCATT against RNASE7', 1),
  ('GAAAUGCGAGCUGAACAUATT against CMAS', 0),
  ('CAAGGUUGAUGGGCGUGUATT against HNRNPA3', 0),
  ('GGGAGAAGGUGAGCAGUAUTT against ZYX', 0),
  ('GAUACGUACUAUGACCGAATT against TGM7', 0);

Fill in: this test's call for CAGAAUCGCUUCUACAAGATT against SPAG6 is ___
0

Fill in: this test's call for GCUGUGGAUUGUCCAACAATT against NPY5R is ___
0

Fill in: this test's call for GAAAGUCCAGAUGAGGAUATT against KLF9 is ___
0

Fill in: this test's call for GCUUUUAUCCUAGACAUCATT against PAQR8 is ___
0

Fill in: this test's call for ACAUCGCCCUCAAACGGGATT against ACTL7A is ___
1

Fill in: this test's call for CUACUUUUAUCUUGCAUAATT against ZNF264 is ___
0

Fill in: this test's call for CACAGUGUUUGAGAACUAUTT against RHOA is ___
0

Fill in: this test's call for GAGUCUGCGUUAUCGACAATT against TPR is ___
1

Fill in: this test's call for GAUCUGCAUCAAUACUGAATT against FBLN5 is ___
0

Fill in: this test's call for UGCUCUACUUCUUAAGUGATT against STARD8 is ___
0

Fill in: this test's call for CCGUGAUCGUGAAGCUAGATT against PKD2 is ___
0

Fill in: this test's call for AGCCUAUGAUUUUCCUGAATT against PTF1A is ___
0

Fill in: this test's call for GGAUAUUACAGCUAUUUGATT against USP10 is ___
0

Fill in: this test's call for CAAUUACGAAUAGAAUUGATT against WEE1 is ___
1

Fill in: this test's call for CCACGAAGAAUGGAUUGAATT against TRIO is ___
0

Fill in: this test's call for CAUAUGAUCCAGACAAGAATT against ZNF425 is ___
0

Fill in: this test's call for GGAUUGCUUCUGACUCCGATT against ELK3 is ___
0

---

Form field: median seed-adjusted z-score (one value per entry).
experiment: Novel Modifiers of Survival Motor Neuron (SMN) Protein: Gene Identification via Genome-wide siRNA Screen; conditions: HEK293T SMN2-luciferase reporter, siRNA knockdown, 72 h; actives lie on both sides;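 further: luminescence tracks full-length SMN protein made from the SMN2 reporter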
In all, about 31,000 sequences went through this assay and about 1,400 (4.5%) were called active. This is one part of a sample in which actives are shown more often than they occur.
Respond using a number only.

INSERT INTO measurements (primary_sequence, measured_result) VALUES
  ('GAACCAACCUGUCAAGUGATT against SELL', 0.554);

Consider the sequence CAAUGAUCCCGGGCAUUUATT against RPP21 and give its measured median seed-adjusted z-score.
-1.09

Consider the sequence GACUAAAGAUUCAGAUAAATT against TRIM13 and give its measured median seed-adjusted z-score.
0.712

---

experiment: Novel Modifiers of Survival Motor Neuron (SMN) Protein: Gene Identification via Genome-wide siRNA Screen; conditions: HEK293T SMN2-luciferase reporter, siRNA knockdown, 72 h; actives lie on both sides;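 further: luminescence tracks full-length SMN protein made from the SMN2 reporter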
Among all 31,000 sequences or so, about 1,400 (4.5%) were called active. The full list was thinned out, with actives kept by preference.
Measured parameter: median seed-adjusted z-score

INSERT INTO results (primary_sequence, measured_result) VALUES
  ('CCUGGAUACCCUAAGCAAATT against PSMD2', '-1.44 (active)'),
  ('GGAAGUACGUUCCAUACAATT against GALNT17', '0.392 (inactive)'),
  ('CAGUAGCAGUGGAAUGGGATT against RBMX', '0.0941 (inactive)'),
  ('CGAUUACGCUUCAGAGAUATT against PTP4A2', '-1.45 (active)');

Consider the sequence GUACCCAAGUAACAACUGUTT against CXCL11 and give its measured median seed-adjusted z-score.
-0.135 (inactive)

Consider the sequence CGGAUACGCUAAAAAUCAATT against B3GNTL1 and give its measured median seed-adjusted z-score.
0 (inactive)

Consider the sequence UGCAGCCUCUCCAAACUUATT against SP6 and give its measured median seed-adjusted z-score.
-0.176 (inactive)

Consider the sequence GAAGAGUGGUACUACCAGATT against BACE2 and give its measured median seed-adjusted z-score.
0.0853 (inactive)

Consider the sequence UGAUAUCGGCUACGUCAAATT against NAGK and give its measured median seed-adjusted z-score.
0.446 (inactive)

Consider the sequence CAAAAUACAGAGUUUCUUUTT against RILP and give its measured median seed-adjusted z-score.
0.503 (inactive)

Consider the sequence CACUGUUUCUUCACCGGCATT against ZDHHC22 and give its measured median seed-adjusted z-score.
0.00446 (inactive)

Consider the sequence GAAGGUUUCUGUGCCCUCATT against SLC4A9 and give its measured median seed-adjusted z-score.
0 (inactive)

---

assay: Novel Modifiers of Survival Motor Neuron (SMN) Protein: Gene Identification via Genome-wide siRNA Screen; conditions: HEK293T SMN2-luciferase reporter, siRNA knockdown, 72 h; actives lie on both sides;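 further: luminescence tracks full-length SMN protein made from the SMN2 reporter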
Hit rate of the full screen: of about 31,000 sequences, about 1,400 (4.5%) were called active.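 How the source made its calls: active means median seed-adjusted z-score above 1 or below -1; inactive means the rest.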 The full list was thinned out, with actives kept by preference.
Reply using exactly one outcome from active, inactive

Some solved entries appear below for comparison.
INSERT INTO measurements (primary_sequence, answer_label) VALUES
  ('GCUGUGCCUUAUAACCGAATT against LRRK2', 'inactive'),
  ('CCUCAGUUGGAGUUUCUAATT against TBCEL', 'inactive');

Fill in: this test's call for CCCUGACUGCAACUGCUUUTT against LDLRAD2 is ___
inactive

Fill in: this test's call for CACUUUUUAUAUUUACGUATT against TSPAN4 is ___
inactive

---

test: Novel Modifiers of Survival Motor Neuron (SMN) Protein: Gene Identification via Genome-wide siRNA Screen; details: HEK293T SMN2-luciferase reporter, siRNA knockdown, 72 h; actives lie on both sides;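 further: luminescence tracks full-length SMN protein made from the SMN2 reporter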
In all, about 31,000 sequences went through this assay and about 1,400 (4.5%) were called active. The sample as a whole holds a higher share of actives than the screen did.
Form field: median seed-adjusted z-score (one value per entry).
Respond using a number only.

INSERT INTO assay_data (primary_sequence, measured_parameter, measured_result) VALUES
  ('ACAACUUCCUGGUCGCUGATT against GPR62', 'median seed-adjusted z-score', 0.0306),
  ('GCAUACCUCAGUUCCAAGATT against CDY2A', 'median seed-adjusted z-score', 0.75),
  ('GCGUCGUGGUCAUGAACAATT against PIP5K1C', 'median seed-adjusted z-score', -0.13);

Consider the sequence CAAUGUGGUGUAUAAUACATT against VNN2 and give its measured median seed-adjusted z-score.
-0.583

Consider the sequence CGGAGACCGUACGAAAGUATT against A2M and give its measured median seed-adjusted z-score.
-1.96

---

assay: Novel Modifiers of Survival Motor Neuron (SMN) Protein: Gene Identification via Genome-wide siRNA Screen; settings: HEK293T SMN2-luciferase reporter, siRNA knockdown, 72 h; actives lie on both sides;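 further: luminescence tracks full-length SMN protein made from the SMN2 reporter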
Out of some 31,000 sequences screened, about 1,400 (4.5%) were called active. Only a selection was taken, and actives are over-represented in it overall.
Measured parameter: median seed-adjusted z-score
Respond using a number only.

Answered examples (8):
INSERT INTO assay_data (primary_sequence, measured_result) VALUES
  ('CUUGAUGACUCUAAACCUATT against RUNX2', 0.335),
  ('CCACCUAUUUGCACAAGGATT against POMT2', -0.614),
  ('CACCAUUGCAAACCAAAUATT against KCNQ5', 0.0191),
  ('GCUCAUUCCUUCUACAAUUTT against CACNA1G', 0.436),
  ('CGGAAGCAGUUCCAACUUUTT against AKAP8', -0.252),
  ('GGAGGAAUCUUGGUCCUUATT against SLC11A2', -0.157),
  ('AGGACCAAAUGUCAAUUUATT against IL1RN', 0.283),
  ('GUUUCACCAUCGUUCGUGATT against PROKR2', 0.328);

Consider the sequence GCAUUUGCCCAGUUCAUGATT against RBM28 and give its measured median seed-adjusted z-score.
0.649

Consider the sequence GGUACUCGGUGGAAACCAATT against CNKSR3 and give its measured median seed-adjusted z-score.
0

Consider the sequence CAUCUGAAGUGGUUAAGCATT against SLC25A26 and give its measured median seed-adjusted z-score.
0.0213

Consider the sequence AGACUGUAUUGCAGGGUGATT against MAFK and give its measured median seed-adjusted z-score.
1.73
